Please go through the items and note down their Affinity ELISA, pH 7.4.
Molecular target: T1, human ROR2 (receptor tyrosine kinase-like orphan receptor 2) (human, UniProt Q01974 34-403, limits assumed)
T1 construct: Antigen of the ELISA, SPR and pH titration assays; also called hROR2
T1 sequence (Q01974 34-403 limits assumed): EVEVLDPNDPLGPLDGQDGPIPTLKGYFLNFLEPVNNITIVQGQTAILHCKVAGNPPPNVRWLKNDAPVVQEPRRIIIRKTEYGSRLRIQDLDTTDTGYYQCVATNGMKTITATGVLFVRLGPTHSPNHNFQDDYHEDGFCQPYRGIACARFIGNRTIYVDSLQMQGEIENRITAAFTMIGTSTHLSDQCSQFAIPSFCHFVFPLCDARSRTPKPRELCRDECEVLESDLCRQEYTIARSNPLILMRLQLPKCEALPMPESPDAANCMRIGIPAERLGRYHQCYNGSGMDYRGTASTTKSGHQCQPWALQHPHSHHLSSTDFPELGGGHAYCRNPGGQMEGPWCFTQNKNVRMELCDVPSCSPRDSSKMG
Assay: affinity ELISA on human ROR2, pH 7.4
Parameters: unit not given here
Just the number.

The recorded Affinity ELISA, pH 7.4 for LC-S030D (antibody, V domains shown, CPE single point mutant of parent VL 48.6-LC-WT) VH: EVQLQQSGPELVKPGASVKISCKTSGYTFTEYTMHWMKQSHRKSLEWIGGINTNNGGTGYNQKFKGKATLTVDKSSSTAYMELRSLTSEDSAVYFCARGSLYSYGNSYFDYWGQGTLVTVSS VL: QIVLTQSPAIMSASPGEKVTITCSATSSVDYMHWFQQKPGTSPKLWIYGTSNLASGVPARFSGSGSGTSYSLTISRMEAEDAATYYCQQRSSYPFTFGQGTKVEIK is 0.252

Form field Affinity ELISA, pH 7.4, entry LC-F097E (antibody, V domains shown, CPE single point mutant of parent VL 48.6-LC-WT) VH: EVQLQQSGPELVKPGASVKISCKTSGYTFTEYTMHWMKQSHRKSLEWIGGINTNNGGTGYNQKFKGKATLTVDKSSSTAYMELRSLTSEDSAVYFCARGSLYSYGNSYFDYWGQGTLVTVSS VL: QIVLTQSPAIMSASPGEKVTITCSATSSVSYMHWFQQKPGTSPKLWIYGTSNLASGVPARFSGSGSGTSYSLTISRMEAEDAATYYCQQRSSYPFTEGQGTKVEIK : 0.215

Per the records, this binder ( LC-H033L (antibody, V domains shown, CPE single point mutant of parent VL 48.6-LC-WT) VH: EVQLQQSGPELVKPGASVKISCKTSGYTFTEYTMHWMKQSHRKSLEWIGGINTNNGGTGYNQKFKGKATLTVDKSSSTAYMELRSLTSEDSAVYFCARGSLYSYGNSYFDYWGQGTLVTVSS VL: QIVLTQSPAIMSASPGEKVTITCSATSSVSYMLWFQQKPGTSPKLWIYGTSNLASGVPARFSGSGSGTSYSLTISRMEAEDAATYYCQQRSSYPFTFGQGTKVEIK ) has Affinity ELISA, pH 7.4 equal to 0.332

Just so you know, measured Affinity ELISA, pH 7.4 for LC-R090H (antibody, V domains shown, CPE single point mutant of parent VL 48.6-LC-WT) VH: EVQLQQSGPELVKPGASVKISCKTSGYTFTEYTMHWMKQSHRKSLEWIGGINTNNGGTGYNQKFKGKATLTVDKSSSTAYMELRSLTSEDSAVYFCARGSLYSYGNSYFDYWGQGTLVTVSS VL: QIVLTQSPAIMSASPGEKVTITCSATSSVSYMHWFQQKPGTSPKLWIYGTSNLASGVPARFSGSGSGTSYSLTISRMEAEDAATYYCQQHSSYPFTFGQGTKVEIK came out at 0.256

Value of measured Affinity ELISA, pH 7.4 for the entry LC-G049C (antibody, V domains shown, CPE single point mutant of parent VL 48.6-LC-WT) VH: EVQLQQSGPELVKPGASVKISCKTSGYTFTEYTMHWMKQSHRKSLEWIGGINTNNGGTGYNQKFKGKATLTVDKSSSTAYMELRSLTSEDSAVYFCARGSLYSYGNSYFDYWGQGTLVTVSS VL: QIVLTQSPAIMSASPGEKVTITCSATSSVSYMHWFQQKPGTSPKLWIYCTSNLASGVPARFSGSGSGTSYSLTISRMEAEDAATYYCQQRSSYPFTFGQGTKVEIK : 0.133

Values were extracted from patent US20250161472A1.
